The origin of these recorded values is PubChem BioAssay AID1159580.

Assay: chemical genetic growth profiling, strain panel (AID 1159580);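 note: tested at 20 µM; growth read once vehicle control cultures reached saturation at 30 °C; 1 = growth at the plate median or of vehicle wells; lower values mean less growth of the strain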
Details: S. cerevisiae deletion strains, growth OD, locus YKR026C, strain gcn3
Among all 5,500 compounds or so, about 2,000 (36%) were called active. Roughly 18% stayed inconclusive and do not appear here. Cut-off read from the data, not from the text of the source: active = normalized growth mostly below about 0.91 (no sharp cut-off); inconclusive = no clear call, values can overlap the other calls; inactive = mostly above about 0.92. The list shows a part of the results.
Outcomes: 1 = active, 0 = inactive

{"compound": "O=C(O)c1ccccc1OP(=O)(O)O", "assignedCategory": 0}
{"compound": "OCCN(CCO)c1nc(N2CCCCC2)c2nc(N(CCO)CCO)nc(N3CCCCC3)c2n1", "assignedCategory": 0}
{"compound": "CC(C)(N=NC(C)(C)C(=N)N)C(=N)N", "assignedCategory": 0}
{"compound": "Cc1cc(=O)c2c(O)cc(O)c(C)c2o1", "assignedCategory": 0}
{"compound": "C[CH2][Hg][S]c1ccccc1C(=O)O", "assignedCategory": 1}
{"compound": "Cc1cc(=O)c2c(O)c(C)c(O)cc2o1", "assignedCategory": 0}
{"compound": "CCCCCC(=O)O[C@]1(C(C)=O)CCC2C3CCC4=CC(=O)CC[C@]4(C)C3CC[C@@]21C (stereo partly drawn)", "assignedCategory": 0}
{"compound": "O=C(/C=C/c1ccccc1)O[C@H]1C[C@@H](O)[C@]2(O)C=CO[C@@H](O[C@@H]3O[C@H](CO)[C@@H](O)[C@H](O)[C@H]3O)[C@H]12", "assignedCategory": 0}
{"compound": "NC(N)=Nc1nc(CSCCC(N)=NS(N)(=O)=O)cs1", "assignedCategory": 0}
{"compound": "COc1cc2c(cc1OC)C(=O)C(CC1CCN(Cc3ccccc3)CC1)C2 (stereo not drawn)", "assignedCategory": 0}
{"compound": "C[N+](C)(C)CCOP(=O)([O-])OP(=O)(O)OC[C@H]1OC(n2ccc(N)nc2=O)[C@H](O)[C@@H]1O (stereo partly drawn)", "assignedCategory": 0}
{"compound": "Cn1cc[nH]c1=S", "assignedCategory": 0}
{"compound": "CCc1ccc(CCOc2ccc(CC3SC(=O)NC3=O)cc2)nc1 (stereo not drawn)", "assignedCategory": 0}
{"compound": "CCCCCCCCCCCCCCCCOP(=O)([O-])OCC[N+](C)(C)C", "assignedCategory": 1}
{"compound": "CC(=O)O[C@]1(C(C)=O)CCC2C3C=C(C)C4=CC(=O)CCC4(C)C3CCC21C (stereo partly drawn)", "assignedCategory": 0}
{"compound": "Cc1c(N(C)C)c(=O)n(-c2ccccc2)n1C", "assignedCategory": 0}
{"compound": "NC(N)=NOCC[C@H](N)C(=O)O", "assignedCategory": 0}
{"compound": "N#Cc1c(Cl)c(Cl)c(Cl)c(C#N)c1Cl", "assignedCategory": 1}
{"compound": "CN1CCCC(n2nc(Cc3ccc(Cl)cc3)c3ccccc3c2=O)CC1 (stereo not drawn)", "assignedCategory": 0}
{"compound": "COc1cc(O)c2c(=O)cc(C)oc2c1CC=C(C)C", "assignedCategory": 0}
{"compound": "C[N+](C)(C)CC(=O)[O-]", "assignedCategory": 0}
{"compound": "COc1cc(O)c(C(=O)c2ccccc2)cc1O", "assignedCategory": 0}
{"compound": "CC(=O)[C@H]1CCC2C3C[C@H](C)C4=CC(=O)CC[C@]4(C)C3[C@@H](O)C[C@@]21C (stereo partly drawn)", "assignedCategory": 0}
